# targetEntity: BLM helicase (Homo sapiens)
# Sequence (P54132 whole entry): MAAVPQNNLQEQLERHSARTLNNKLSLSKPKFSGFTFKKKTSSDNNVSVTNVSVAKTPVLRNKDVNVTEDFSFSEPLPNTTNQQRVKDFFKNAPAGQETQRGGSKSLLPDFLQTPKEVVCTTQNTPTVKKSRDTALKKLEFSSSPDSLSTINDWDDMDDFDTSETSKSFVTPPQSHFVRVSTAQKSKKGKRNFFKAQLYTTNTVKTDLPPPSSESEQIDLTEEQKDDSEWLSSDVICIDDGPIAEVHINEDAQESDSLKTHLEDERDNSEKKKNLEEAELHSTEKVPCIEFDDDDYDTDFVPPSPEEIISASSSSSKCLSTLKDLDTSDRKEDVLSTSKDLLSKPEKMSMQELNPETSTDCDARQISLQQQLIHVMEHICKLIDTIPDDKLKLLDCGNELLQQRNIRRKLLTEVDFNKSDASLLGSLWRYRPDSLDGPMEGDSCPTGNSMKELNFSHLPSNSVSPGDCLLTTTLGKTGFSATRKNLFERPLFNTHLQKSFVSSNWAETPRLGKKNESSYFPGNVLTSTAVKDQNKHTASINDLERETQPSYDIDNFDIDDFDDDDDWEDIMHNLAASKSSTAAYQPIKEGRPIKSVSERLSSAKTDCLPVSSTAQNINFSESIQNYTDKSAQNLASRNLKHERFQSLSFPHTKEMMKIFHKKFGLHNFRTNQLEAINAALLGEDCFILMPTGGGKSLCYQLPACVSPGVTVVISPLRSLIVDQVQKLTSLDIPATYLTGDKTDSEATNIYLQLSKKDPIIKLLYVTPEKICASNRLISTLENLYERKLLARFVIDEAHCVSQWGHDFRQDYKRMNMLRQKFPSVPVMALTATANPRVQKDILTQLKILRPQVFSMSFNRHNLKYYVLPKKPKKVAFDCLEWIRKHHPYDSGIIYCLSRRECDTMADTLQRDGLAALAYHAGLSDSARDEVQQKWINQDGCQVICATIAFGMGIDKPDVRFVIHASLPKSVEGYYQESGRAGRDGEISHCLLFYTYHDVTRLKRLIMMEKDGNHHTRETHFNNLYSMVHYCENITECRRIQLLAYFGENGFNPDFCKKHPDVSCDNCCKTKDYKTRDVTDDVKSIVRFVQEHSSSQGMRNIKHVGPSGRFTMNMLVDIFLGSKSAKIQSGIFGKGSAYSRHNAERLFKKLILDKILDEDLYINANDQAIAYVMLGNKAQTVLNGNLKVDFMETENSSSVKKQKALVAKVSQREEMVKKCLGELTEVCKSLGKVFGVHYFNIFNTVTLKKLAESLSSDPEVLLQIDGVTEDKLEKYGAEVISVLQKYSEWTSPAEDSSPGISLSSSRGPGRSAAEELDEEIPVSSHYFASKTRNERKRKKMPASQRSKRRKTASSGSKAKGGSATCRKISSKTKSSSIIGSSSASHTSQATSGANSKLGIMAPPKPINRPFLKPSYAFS
# testSummary: gel-based BLM DNA unwinding assay
# Type: biochemical
# runConditions: gel-based BLM DNA unwinding assay
metric: IC50 (BLM)

O=C(Nc1ccc(Cl)c(Cl)c1)Nc1nnc(-c2ccccc2)s1 [Compound 4a] | inactivity
O=C(Nc1ccccc1)Nc1nnc(-c2ccncc2)s1 [Compound 9] | drastic loss in activity
O=C(Nc1ccc(Cl)c(Cl)c1)Nc1nnc(-c2ccccn2)s1 [Compound 4b] | inactivity
O=C(Nc1ccc(Cl)cc1)Nc1nnc(-c2ccncc2)s1 [Compound 8] | drastic loss in activity
O=C(Nc1ccc(Cl)c(Cl)c1)Nc1ccc(-c2ccncc2)s1 [Compound 6a] | loss of activity

Here is another compound to look at.
Item O=C(Nc1ccc(Cl)c(Cl)c1)Nc1nnc(-c2ccncc2)o1 [Compound 6d] has what recorded IC50 (BLM)?
loss of activity
